Target Desc: ACE (Oryctolagus cuniculus)
Construct: purchased Sigma (St. Louis, MO, USA)
Sequence (P12822 34-1310): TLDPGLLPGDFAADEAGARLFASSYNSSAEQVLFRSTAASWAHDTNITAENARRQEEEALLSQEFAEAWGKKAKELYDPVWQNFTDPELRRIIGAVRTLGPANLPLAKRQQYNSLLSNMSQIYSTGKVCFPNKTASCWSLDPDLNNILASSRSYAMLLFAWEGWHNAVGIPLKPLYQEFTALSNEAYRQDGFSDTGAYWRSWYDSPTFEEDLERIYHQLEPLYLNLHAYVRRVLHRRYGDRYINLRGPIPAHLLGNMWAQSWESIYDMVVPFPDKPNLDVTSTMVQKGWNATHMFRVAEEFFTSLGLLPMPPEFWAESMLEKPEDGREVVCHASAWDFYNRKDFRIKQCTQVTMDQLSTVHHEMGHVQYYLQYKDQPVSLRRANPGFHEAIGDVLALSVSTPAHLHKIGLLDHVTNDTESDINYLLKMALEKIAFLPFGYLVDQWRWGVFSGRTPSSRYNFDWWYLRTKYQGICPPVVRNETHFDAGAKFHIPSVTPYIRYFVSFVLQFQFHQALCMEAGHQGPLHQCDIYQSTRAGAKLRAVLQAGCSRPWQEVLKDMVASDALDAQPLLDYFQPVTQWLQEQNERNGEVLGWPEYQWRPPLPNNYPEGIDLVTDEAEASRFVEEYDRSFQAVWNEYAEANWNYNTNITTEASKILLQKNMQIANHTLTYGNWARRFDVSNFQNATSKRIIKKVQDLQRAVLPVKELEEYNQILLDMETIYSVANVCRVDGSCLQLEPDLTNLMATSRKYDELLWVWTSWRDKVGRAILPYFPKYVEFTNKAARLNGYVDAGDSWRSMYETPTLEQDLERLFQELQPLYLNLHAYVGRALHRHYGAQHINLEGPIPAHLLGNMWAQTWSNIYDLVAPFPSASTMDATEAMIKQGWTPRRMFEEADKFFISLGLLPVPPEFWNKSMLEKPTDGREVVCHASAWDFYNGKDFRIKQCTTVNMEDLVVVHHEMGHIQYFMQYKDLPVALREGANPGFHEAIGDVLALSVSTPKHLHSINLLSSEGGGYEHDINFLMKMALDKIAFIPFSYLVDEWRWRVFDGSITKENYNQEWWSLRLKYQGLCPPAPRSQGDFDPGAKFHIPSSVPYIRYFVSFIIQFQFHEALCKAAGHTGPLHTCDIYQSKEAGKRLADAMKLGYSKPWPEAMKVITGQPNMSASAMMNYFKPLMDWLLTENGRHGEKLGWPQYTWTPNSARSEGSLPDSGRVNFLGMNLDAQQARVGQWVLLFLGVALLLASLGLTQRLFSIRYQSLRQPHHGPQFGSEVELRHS
Test Protocol: ACE inhibition, N-hippuryl-L-histidyl-L-leucine method
Type: biochemical
Stated Conditions: synthesized peptide; HHL 5 mmol·L^−1, boric acid buffer pH 8.3, 37 °C, 10 min pre-incubation, 1 h reaction, absorbance at 228 nm; read-out: Inhibitory effect against ACE (IC50)
Ends that are not written are not given here.
Assay Readout: pIC50
Schema: pIC50 number; meaning minus log10 of the concentration expressed in molar units.

Given item `RPPSEDEDQE` , the value recorded as its pIC50 is 3.69
